Target: human M2 receptor (Homo sapiens)
Construct: expressed in transfected cells; host or cells: CHO-DUKX (CHO-DUKX-M2-GIRK)
Sequence (P08172 1-466): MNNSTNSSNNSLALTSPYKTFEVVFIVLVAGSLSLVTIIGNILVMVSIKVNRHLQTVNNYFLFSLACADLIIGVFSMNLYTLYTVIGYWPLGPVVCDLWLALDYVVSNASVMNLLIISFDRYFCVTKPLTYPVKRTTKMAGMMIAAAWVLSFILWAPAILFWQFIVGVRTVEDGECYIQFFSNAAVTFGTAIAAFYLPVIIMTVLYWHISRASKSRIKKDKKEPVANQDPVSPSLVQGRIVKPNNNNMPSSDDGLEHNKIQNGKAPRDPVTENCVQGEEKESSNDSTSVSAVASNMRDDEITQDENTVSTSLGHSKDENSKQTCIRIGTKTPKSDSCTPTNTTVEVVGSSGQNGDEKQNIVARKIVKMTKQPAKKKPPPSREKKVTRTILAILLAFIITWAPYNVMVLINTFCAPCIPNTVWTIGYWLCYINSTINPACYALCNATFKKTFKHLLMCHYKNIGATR
Assay: Functional M2-GIRK1/4 activation test: allosteric potency (EC50) and efficiency at EC20 acetylcholine
Assay type: cell-based
Conditions: boosting of the acetylcholine effect at EC20 acetylcholine concentration; CHO-DUKX-M2-GIRK cells
READOUT_KIND: Efficiency
Answer with the value and then the unit.

Consider the worked cases shown below.
CCC(NC(=O)c1cn(-c2c(F)cc(F)cc2F)c2nc(N3CC(CO)(CO)C3)c(F)cc2c1=O)C(F)(F)C(F)(F)F (racemic) [Example 172] = 94%
C[C@@H](NC(=O)c1cn(-c2c(F)cc(F)cc2Cl)c2nc(N3C[C@@H](O)[C@H](O)C3)c(F)cc2c1=O)C(F)(F)F (single isomer, unassigned) [Example 229] = 67%
C[C@H](NC(=O)c1cn(-c2c(F)cc(F)cc2Cl)c2nc(N3C[C@@H](O)[C@H](O)C3)c(F)cc2c1=O)C(F)(F)F (single isomer, unassigned) = 93%
CCC(NC(=O)c1cn(-c2c(F)cc(F)cc2F)c2nc(N3C[C@@H](O)[C@@H](O)C3)c(F)cc2c1=O)C(C)C (some centres unmarked) [Example 106] = 100%
O=C(NC(C1CC1)C(F)(F)C(F)(F)F)c1cn(-c2c(F)cc(F)cc2F)c2nc(N3CC4(COC4)C3)c(F)cc2c1=O (single isomer, unassigned) = 100%
CC(C)(C)C(NC(=O)c1cn(-c2c(F)cc(F)cc2F)c2nc(N3CC4(COC4)C3)c(F)cc2c1=O)C(F)(F)C(F)(F)F (single isomer, unassigned) = 100%

For each of the compounds below, note its Efficiency.
1. CCN(CC(C)O)c1nc2c(cc1F)c(=O)c(C(=O)N[C@@H](C1CC1)C(F)(F)F)cn2-c1c(F)cc(F)cc1F (single isomer, unassigned)
2. CC(C)C(NC(=O)c1cn(-c2c(F)cc(F)cc2F)c2nc(N3C[C@@H](O)[C@@H](O)C3)c(F)cc2c1=O)C(F)(F)F (single isomer, unassigned)
3. CCC(NC(=O)c1cn(-c2c(F)cc(F)cc2F)c2nc(N3C[C@@H](O)[C@H](O)C3)c(F)cc2c1=O)C(C)C (single isomer, unassigned)
4. CC(NC(=O)c1cn(-c2ncc(F)cc2F)c2nc(N3CC[C@H](O)C3)c(F)cc2c1=O)C(F)(F)C(F)(F)F (single isomer, unassigned)
5. CC[C@H](NC(=O)c1cn(-c2c(F)cc(F)cc2Cl)c2nc(N3C[C@@H](O)[C@H](O)C3)c(F)cc2c1=O)C(F)(F)F (single isomer, unassigned)

result:
["95%", "84%", "100%", "95%", "78%"]
